// data source = patent US20020035061A1

Test system: P. aeruginosa
Assay type: cell-based
experimental_setup: P. aeruginosa strain PA004
Reported MIC values for a set of sequences

MIC of ILRWPWWPWRRKDMILKKAGS [MBI 11B18CN] , assay on P. aeruginosa, is >128 µg/mL

---

Each item that follows carries a reported MIC.
Tested on: P. aeruginosa
Assay type: cell-based
experimental_setup: P. aeruginosa strain PA004

Consider the reported MIC for these sequences:
> print(dat)
                     monomer.sequence  observation.type      result
1  ILRWPWWPWRRKMILKKAGS [MBI 11B17CN]               MIC  >128 µg/mL
2          ILKKNPNNPRRK [MBI 11G6ACN]               MIC  >128 µg/mL

We now examine a further sequence.
Entry ILKKWPWWPWRRKMILKKAGS [MBI 11D4CN] — recorded MIC = >64 µg/mL
